These data points were gathered from PubChem BioAssay (NCI).

Tested on: A549/ATCC NSCLC
assayProcedure: NCI-60 one-dose screen, 48 h (100 = growth as untreated, 0 = no growth, -100 = all killed)
studyConditions: 10 µM unless noted
About 83,000 compounds went through this panel and 20% of them were active in at least one assay; those are over-represented in the sample as a whole.
With a cut-off of 40%, any growth strictly below it is called criterion met; any growth meeting it or above is called criterion not met.

Answered examples (3):
smilesText	assignedCategory
NC(=O)c1cc(I)ccc1NC(=O)/C=C/c1ccccc1	criterion met
CCN(CC)S(=O)(=O)c1ccc(S(=O)(=O)N2CCC[C@@H](C(=O)N3CCN(c4nc(C(C)C)no4)CC3)C2)cc1	criterion not met
COC(=O)[C@]12CCC(C)(C)C[C@H]1[C@H]1/C(=N/OCCc3nn[nH]n3)C[C@@H]3[C@@]4(C)CC[C@H](OC(C)=O)C(C)(C)[C@@H]4CC[C@@]3(C)[C@]1(C)CC2	criterion met

Prompt: # strict comparison: is reported growth < 40%? input = O=C1c2ccccc2-c2c1c1c(=O)[nH]c3ccccc3c1n2Cc1ccccc1
Response: criterion not met

Prompt: Here is the next molecule: NC(=O)c1cccc(-n2ccc3cc(NC(=O)c4ccc(N5CCOCC5)c(C(F)(F)F)c4)ccc32)n1
Response: criterion not met
